The values you see were collected from paper doi:10.1101/327320.

# ASSAYED TARGET: T1, Pif1 (Saccharomyces cerevisiae, UniProt P07271 1-859)
# T1 sequence: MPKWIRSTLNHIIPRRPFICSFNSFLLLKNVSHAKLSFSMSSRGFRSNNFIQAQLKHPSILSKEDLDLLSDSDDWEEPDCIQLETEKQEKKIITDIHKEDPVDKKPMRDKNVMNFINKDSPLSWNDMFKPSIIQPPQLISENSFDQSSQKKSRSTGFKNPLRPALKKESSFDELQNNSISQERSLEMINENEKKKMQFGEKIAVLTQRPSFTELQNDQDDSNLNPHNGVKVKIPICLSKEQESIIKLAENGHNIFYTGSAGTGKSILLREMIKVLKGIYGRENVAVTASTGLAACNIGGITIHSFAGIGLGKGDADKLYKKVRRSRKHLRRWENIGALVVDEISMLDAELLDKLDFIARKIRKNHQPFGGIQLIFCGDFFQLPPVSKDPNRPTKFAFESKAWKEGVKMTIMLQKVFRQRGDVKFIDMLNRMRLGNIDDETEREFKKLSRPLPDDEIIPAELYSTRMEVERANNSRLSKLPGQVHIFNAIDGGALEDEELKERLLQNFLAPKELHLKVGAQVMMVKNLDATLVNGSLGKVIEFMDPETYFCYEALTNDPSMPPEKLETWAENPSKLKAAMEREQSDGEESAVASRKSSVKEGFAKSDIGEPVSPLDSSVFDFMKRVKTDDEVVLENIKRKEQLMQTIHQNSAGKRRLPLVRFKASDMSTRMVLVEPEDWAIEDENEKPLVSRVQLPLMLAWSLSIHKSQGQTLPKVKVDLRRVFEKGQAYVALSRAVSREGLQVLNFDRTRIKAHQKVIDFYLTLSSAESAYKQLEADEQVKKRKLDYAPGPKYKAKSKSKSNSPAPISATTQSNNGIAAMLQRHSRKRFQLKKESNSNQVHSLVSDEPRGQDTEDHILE
# ASSAY TEXT: EMSA
MEASURE: Kd

Reported Kd of CGCCATGCTGATCCGTGTGGTGTGTGTGGG (ssDNA) [Tel30] : 33.5 nM
